target: Bcl-2 (Homo sapiens (Human))
Sequence (P10415 whole entry): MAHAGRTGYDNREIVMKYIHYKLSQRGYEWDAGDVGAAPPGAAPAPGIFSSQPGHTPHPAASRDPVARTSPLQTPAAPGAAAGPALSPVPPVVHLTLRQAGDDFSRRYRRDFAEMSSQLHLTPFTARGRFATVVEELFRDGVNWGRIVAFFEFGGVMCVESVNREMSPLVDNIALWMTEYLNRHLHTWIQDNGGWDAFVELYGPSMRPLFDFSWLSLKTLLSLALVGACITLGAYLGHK
Reported property: IC50 (nM)
Please respond with the number in nM and leave the unit unwritten.

Short answer on Bcl-2 (Homo sapiens (Human)) for O=C(NS(=O)(=O)C1=CC2C(C=NN2CC2CCOCC2)C([N+](=O)[O-])=C1)c1ccc(N2CCN(CC3=C(c4ccc(Cl)cc4)CC4(CCC4)CC3)CC2)cc1Oc1cnc2[nH]ccc2c1 (stereo not shown) , IC50: 1.6
